src = patent US5510355A

# MEASURED ON: muscle-like nicotinic receptors (human clonal line TE671/RD) (Homo sapiens, UniProt P02708+P07510+Q07001)
# Construct: these cells express muscle-like nicotinic receptors; endogenous in cells; host or cells: TE671/RD (human embryonal rhabdomyosarcoma line)
# Sequence (P07510 23-517): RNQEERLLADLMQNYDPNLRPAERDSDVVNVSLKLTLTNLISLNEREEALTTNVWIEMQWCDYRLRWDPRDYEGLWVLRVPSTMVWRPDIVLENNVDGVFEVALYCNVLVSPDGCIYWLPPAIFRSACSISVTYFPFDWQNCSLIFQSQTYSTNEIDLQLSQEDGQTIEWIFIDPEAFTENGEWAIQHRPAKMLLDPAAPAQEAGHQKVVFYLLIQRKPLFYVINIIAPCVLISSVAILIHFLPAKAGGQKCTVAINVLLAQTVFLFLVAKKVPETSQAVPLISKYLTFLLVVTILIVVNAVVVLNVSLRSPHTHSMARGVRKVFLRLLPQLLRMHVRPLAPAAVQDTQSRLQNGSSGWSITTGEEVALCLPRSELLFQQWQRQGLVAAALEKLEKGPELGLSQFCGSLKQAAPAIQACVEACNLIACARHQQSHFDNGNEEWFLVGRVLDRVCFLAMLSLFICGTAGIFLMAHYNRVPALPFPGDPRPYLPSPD
# Sequence (P02708 21-457): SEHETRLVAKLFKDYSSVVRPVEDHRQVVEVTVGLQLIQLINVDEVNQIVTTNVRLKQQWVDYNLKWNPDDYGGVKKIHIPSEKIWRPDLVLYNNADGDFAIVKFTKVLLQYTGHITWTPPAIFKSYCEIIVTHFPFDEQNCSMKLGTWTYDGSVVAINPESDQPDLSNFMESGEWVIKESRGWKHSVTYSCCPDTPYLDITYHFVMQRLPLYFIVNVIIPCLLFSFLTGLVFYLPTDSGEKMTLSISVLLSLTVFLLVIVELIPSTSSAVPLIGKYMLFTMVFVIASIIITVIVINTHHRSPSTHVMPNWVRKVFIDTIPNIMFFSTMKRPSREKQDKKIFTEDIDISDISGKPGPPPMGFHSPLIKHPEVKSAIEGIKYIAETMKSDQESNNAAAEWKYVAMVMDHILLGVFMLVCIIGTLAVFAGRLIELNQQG
# Sequence (Q07001 22-517): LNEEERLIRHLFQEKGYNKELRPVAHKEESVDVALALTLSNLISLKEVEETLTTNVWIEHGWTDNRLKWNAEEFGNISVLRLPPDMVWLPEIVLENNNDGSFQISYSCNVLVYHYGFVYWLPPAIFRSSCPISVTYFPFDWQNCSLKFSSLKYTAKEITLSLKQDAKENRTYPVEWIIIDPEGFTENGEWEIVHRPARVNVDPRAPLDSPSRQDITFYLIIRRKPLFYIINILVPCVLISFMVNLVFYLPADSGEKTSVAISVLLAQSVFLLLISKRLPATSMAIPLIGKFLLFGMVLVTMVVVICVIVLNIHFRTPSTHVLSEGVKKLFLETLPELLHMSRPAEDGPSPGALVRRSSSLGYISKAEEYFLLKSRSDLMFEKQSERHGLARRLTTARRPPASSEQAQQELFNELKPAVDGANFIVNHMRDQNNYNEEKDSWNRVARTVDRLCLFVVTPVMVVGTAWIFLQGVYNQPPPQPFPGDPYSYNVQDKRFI
# ASSAY REMARKS: cell-based
# CONDITION SUMMARY: human muscle; comparison of EC50 values with Sample No. C-2
Where a name gives a salt, the structure may show the parent alone.
PARAMETER: potency relative to succinylcholine, in words

Recorded result, CC(=O)OCC1CC2CCN1CC2.[O-][Cl+3]([O-])([O-])O (racemic) [Sample No. 4] , potency relative to succinylcholine, in words: more potent

Measured potency relative to succinylcholine, in words of c1cncc(C2=NCCCC2)c1 [Sample No. 3, anabaseine dihydrochloride] : more potent

Sample O=C(O)/C=C/C(=O)O.O=C(O)/C=C/C(=O)O.c1cncc(C2CC3CCN2CC3)c1 (racemic) [Sample No. 1] ; potency relative to succinylcholine, in words observed: more potent

====

# Tested on: ganglionic-type neuronal nicotinic receptors (rat pheochromocytoma clonal line PC12)
# Format: cell-based
Known RAT GANGLIA Emax (maximal activation as percentage of that induced by acetylcholine) of a selection of compounds
Your answer is read as %, so omit the unit and give the number.

Form field RAT GANGLIA Emax (maximal activation as percentage of that induced by acetylcholine), entry O=C(O)/C=C/C(=O)O.O=C(O)/C=C/C(=O)O.c1cncc(C2CC3CCN2CC3)c1 (racemic) : 100

The measured RAT GANGLIA Emax (maximal activation as percentage of that induced by acetylcholine) associated with C[N+](C)(C)CCOC(=O)CCC(=O)OCC[N+](C)(C)C [Sample No. C-2, succinylcholine chloride, reference compound] reads 0

Recorded result, Fc1cncc(C2=NCCCC2)c1 [Sample No. 2, 5-fluoroanabaseine dipicrate] , RAT GANGLIA Emax (maximal activation as percentage of that induced by acetylcholine): 0

Note to self: RAT GANGLIA Emax (maximal activation as percentage of that induced by acetylcholine) recorded for CC(=O)OCC[N+](C)(C)C [C-1, acetylcholine, reference compound] was 100

So for CC(=O)OCC1CC2CCN1CC2.[O-][Cl+3]([O-])([O-])O (racemic) , the logged RAT GANGLIA Emax (maximal activation as percentage of that induced by acetylcholine) turned out to be 60

Next item in the queue.
RAT GANGLIA Emax (maximal activation as percentage of that induced by acetylcholine) measured on CN1CCCC1c1cncc(Cl)c1.[O-][Cl+3]([O-])([O-])O (racemic) [Sample No. 6, (+/-)-5-chloronicotine perchlorate] = 0

====

# MEASURED ON: muscle-like nicotinic receptors (human clonal line TE671/RD) (Homo sapiens, UniProt P02708+P07510+Q07001)
# Construct: these cells express muscle-like nicotinic receptors; endogenous in cells; host or cells: TE671/RD (human embryonal rhabdomyosarcoma line)
# ASSAY REMARKS: cell-based
# CONDITION SUMMARY: TE671/RD, read-out: HUMAN MUSCLE Emax (maximal activation as percentage of that induced by acetylcholine)
Where a name gives a salt, the structure may show the parent alone.
PARAMETER: Emax (%)
Please state the figure in %; there is no need to write the unit.

As a guide, the following entries are already answered.
Lookup result for c1cncc(C2=NCCCC2)c1 [Sample No. 3, anabaseine dihydrochloride] ; measured Emax: 200

Record O=C(O)/C=C/C(=O)O.O=C(O)/C=C/C(=O)O.c1cncc(C2CC3CCN2CC3)c1 (racemic) [Sample No. 1, difumarate] . Reported Emax: 130

Briefly, Emax measured for Fc1cncc(C2CCCN2)c1 (racemic) [Sample No. 5, (+/-)-5-fluoronornicotine] : 160

Data point: CC(=O)OCC1CC2CCN1CC2.[O-][Cl+3]([O-])([O-])O (racemic) ; Emax = 200

Form field Emax, entry C[N+](C)(C)CCOC(=O)CCC(=O)OCC[N+](C)(C)C [Sample No. C-2, succinylcholine chloride, reference compound] : 95

Others:
The reported value for CN1CCCC1c1cncc(Cl)c1.[O-][Cl+3]([O-])([O-])O (racemic) [Sample No. 6, (+/-)-5-chloronicotine perchlorate] in terms of Emax is 110

Sample Fc1cncc(C2=NCCCC2)c1 [Sample No. 2, 5-fluoroanabaseine dipicrate] ; Emax observed: 220
